Collected binding signal values appear next to each entry.
- systemUnderTest: MBP-FoxP1dN (Mus musculus, UniProt P58462 326-579)
- Sequence: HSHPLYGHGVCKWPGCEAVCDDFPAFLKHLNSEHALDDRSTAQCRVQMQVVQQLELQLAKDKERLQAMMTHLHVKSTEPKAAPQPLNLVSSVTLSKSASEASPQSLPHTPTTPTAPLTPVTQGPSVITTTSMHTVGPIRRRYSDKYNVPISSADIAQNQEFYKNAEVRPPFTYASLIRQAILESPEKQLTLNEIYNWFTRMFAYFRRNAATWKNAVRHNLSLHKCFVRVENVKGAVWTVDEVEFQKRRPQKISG
- assayMethodText: PD-seq (MBP pull-down with sequencing); 20 mM Tris-HCl pH 7.5, 100 mM NaCl, 1.5 mM MgCl2, 0.4 uM protein, 0.1 uM dsDNA library, 30 min, room temperature, amylose pull-down; high values mean tight binding
- testContext: protein: recombinant; tags: His6-MBP; chain copies: 2; dsDNA, one strand shown
Over roughly 16,000 sequences, “rpm ratio (pull-down/input)” has its median near 0.94; the highest 2% begin near 1.7. The list comes from a sample in which the highest values are over-represented; it also holds close analogues and randomly drawn sequences.
measuredParameter: binding signal

>>> measuredresult("GATGATTGTTCTCCCAGCTGATGAATTTGTGTCATCGAGTAAACAAATTTTCCTAATCTTTCTGTTCAAGCGCCATCTAC")
"1.48 RPM ratio (pull-down/input)"
>>> measuredresult("GATGATTGTTCTCCCAGCTGATGAATTTGGTATATCGAGTAAACAAATTTTCCTAATCTTTCTGTTCAAGCGCCATCTAC")
"1.23 RPM ratio (pull-down/input)"
>>> measuredresult("GATGATTGTTCTCCCAGCTGATGAATTGACGCCATCGAGTAAACAAATTTTCCTAATCTTTCTGTTCAAGCGCCATCTAC")
"1.24 RPM ratio (pull-down/input)"
>>> measuredresult("GATGATTGTTCTCCCAGCTGATGAATTCCAAGTATCGAGTAAACAAATTTTCCTAATCTTTCTGTTCAAGCGCCATCTAC")
"0.949 RPM ratio (pull-down/input)"
>>> measuredresult("GATGATTGTTCTCCCAGCTGATGAATTTTTGACGTCGAGTAAACAAATTTTCCTAATCTTTCTGTTCAAGCGCCATCTAC")
"0.91 RPM ratio (pull-down/input)"
>>> measuredresult("GATGATTGTTCTCCCAGCTGATGAATTTGACGTATCGAGTAAACAAATTTTCCTAATCTTTCTGTTCAAGCGCCATCTAC")
"0.962 RPM ratio (pull-down/input)"
>>> measuredresult("GATGATTGTTCTCCCAGCTGATGAATTTAGGACGTCGAGTAAACAAATTTTCCTAATCTTTCTGTTCAAGCGCCATCTAC")
"0.956 RPM ratio (pull-down/input)"

====

- systemUnderTest: MBP-FoxP1dN (Mus musculus, UniProt P58462 326-579)
- Sequence: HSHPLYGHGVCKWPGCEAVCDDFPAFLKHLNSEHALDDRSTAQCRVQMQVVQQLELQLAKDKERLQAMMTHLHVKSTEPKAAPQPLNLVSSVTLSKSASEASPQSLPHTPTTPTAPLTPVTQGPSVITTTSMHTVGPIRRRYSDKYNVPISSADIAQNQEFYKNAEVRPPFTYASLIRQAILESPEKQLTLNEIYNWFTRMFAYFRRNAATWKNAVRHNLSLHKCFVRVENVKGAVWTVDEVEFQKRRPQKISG
- assayMethodText: PD-seq (MBP pull-down with sequencing); 20 mM Tris-HCl pH 7.5, 100 mM NaCl, 1.5 mM MgCl2, 0.4 uM protein, 0.1 uM dsDNA library, 30 min, room temperature, amylose pull-down; high values mean tight binding
- testContext: protein: recombinant; tags: His6-MBP; chain copies: 2; dsDNA, one strand shown
Over roughly 16,000 sequences, “rpm ratio (pull-down/input)” has its median near 0.94; the highest 2% begin near 1.7. This is one part of a sample in which the highest values are shown more often than they occur.
measuredParameter: binding signal

>>> measuredresult("GATGATTGTTCTCCCAGCTGATGAATTGCAACCATCGAGTAAACAAATTTTCCTAATCTTTCTGTTCAAGCGCCATCTAC")
"1.45 RPM ratio (pull-down/input)"
>>> measuredresult("GATGATTGTTCTCCCAGCTGATGAATTGCAACAATCGAGTAAACAAATTTTCCTAATCTTTCTGTTCAAGCGCCATCTAC")
"1.91 RPM ratio (pull-down/input)"
>>> measuredresult("GATGATTGTTCTCCCAGCTGATGAATTGATGCAATCGAGTAAACAAATTTTCCTAATCTTTCTGTTCAAGCGCCATCTAC")
"1.96 RPM ratio (pull-down/input)"
>>> measuredresult("GATGATTGTTCTCCCAGCTGATGAATTGTTGCAATCGAGTAAACAAATTTTCCTAATCTTTCTGTTCAAGCGCCATCTAC")
"1.87 RPM ratio (pull-down/input)"
